target: human DR5 (human); assay: SPR (BIAcore X100), human DR5 on CM5 chip, IgG injected, 1:1 Langmuir model
RESULT_TYPE: koff (s⁻¹)
Expressed in s⁻¹, but write only the number.

Using the record for D0 (antibody, V domains shown) VH: AVTLDESGGGLQTPGGGLSLVCKGSGFTFSSFNMLWVRQAPGKGLEWVAGIGKSDRYTGYGSAVKGRATISRDDGQSTVRLQLNNLRAEDTGTYYCVKDAGSGCGSGGWTGACIDTWGHGTEVIVSS VL: LTQPSSVSANLGGTVEITCSGGDSYAGSYYYGWYQQKAPGSAPVTVIYNNNNRPSNIPSRFSGSTSGSTATLTITGVQAEDEAVYFCGSRDSSYVGIFGAGTTLTVL , state its measured koff.
2.26e-05
